B1: ZNF277 (parent)
chain: ILREELQKQRLREILEQQQQERND

- Variants of: B1
- test method notes: protein stability index of a GFP-peptide fusion (GPS, HEK-293T) (PSI 1-6); higher = more stable;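 note: lentivirally expressed fusions sorted by FACS into six bins by GFP to DsRed ratio, PSI derived from sequencing read proportions per bin multiplied by bin number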
- condition info: c terminus: a fixed tail appended
experimental readout: protein stability index
One number for each entry.

In the examples that follow, each entry is paired with its recorded protein stability index.
variant_designation=R3W experimental_result=2.56
variant_designation=N23C experimental_result=3.98
variant_designation=I1T experimental_result=5.08
variant_designation=I1K experimental_result=4.24
variant_designation=R12N experimental_result=4.86

For each of the variants below, note its protein stability index.
1. E21T
2. I1H
3. Q9K
4. D24L
5. E4K

A)
1. 4.09
2. 4.89
3. 4.42
4. 4.08
5. 3.22

Q) What value of protein stability index has been recorded for this entry: `D24A`
A) 3.47
